# TESTED TARGET: PIK3CA (human)
# PROTOCOL: Enzyme Assay
// IC50 lookup, one value per entry
ENDPOINT NAME: IC50

Cc1nc2c(N[C@@H](C)c3cc4cccc(-c5cnn(C)c5)c4c(=O)n3-c3ccccc3)ncnc2s1 | > 10 µM
C[C@H](Nc1ncnc2scnc12)c1cc2cccc(C(=O)N(C)C)c2c(=O)n1-c1ccccc1 | > 10 µM
C[C@H](Nc1ncnc2scnc12)c1cc2cccc(-c3ccccn3)c2c(=O)n1-c1ccccc1 | > 10 µM
Cc1nc2c(N[C@@H](C)c3cc4cccc(Cl)c4c(=O)n3-c3ccccc3)ncnc2s1 | > 10 µM
Cc1cncc(-c2cccc3cc([C@H](C)Nc4ncnc5scnc45)n(-c4ccccc4)c(=O)c23)c1 | 0.1 to 1 µM
Cc1cc(-c2cccc3cc([C@H](C)Nc4ncnc5scnc45)n(-c4ccccc4)c(=O)c23)ccn1 | 0.1 to 1 µM
C[C@H](Nc1ncnc2scnc12)c1cc2cccc(Cl)c2c(=O)n1-c1ccccc1 | 0.1 to 1 µM
C[C@H](Nc1ncnc2scnc12)c1cc2cccc(-c3cnn(C)c3)c2c(=O)n1-c1ccccc1 | 0.1 to 1 µM
C[C@H](Nc1ncnc2scnc12)c1cc2cccc(-c3cnc4[nH]ccc4c3)c2c(=O)n1-c1ccccc1 | 0.1 to 1 µM
Cc1nsc2cc(C(C)Nc3ncnc4scnc34)n(-c3ccccc3)c(=O)c12 (stereo not given) | > 10 µM
C[C@H](Nc1ncnc2scnc12)c1cc2cccc(C(=O)N3CCOCC3)c2c(=O)n1-c1ccccc1 | > 10 µM
C[C@H](Nc1ncnc2scnc12)c1cc2cccc(Cl)c2c(=O)n1-c1cccc(C(F)(F)F)c1 | > 10 µM
Cc1nc2c(N[C@@H](C)c3cc4cccc(Cl)c4c(=O)n3-c3cccc(F)c3)ncnc2s1 | > 10 µM
C[C@H](Nc1ncnc2scnc12)c1cc2cccc(-c3ccncc3)c2c(=O)n1-c1ccccc1 | 0.1 to 1 µM
Cc1ncc(-c2cccc3cc([C@H](C)Nc4ncnc5scnc45)n(-c4ccon4)c(=O)c23)cn1 | > 10 µM
